- subject.of.test: N-formyl peptide receptor 2 (Homo sapiens, UniProt P25090)
- Sequence (P25090 whole entry): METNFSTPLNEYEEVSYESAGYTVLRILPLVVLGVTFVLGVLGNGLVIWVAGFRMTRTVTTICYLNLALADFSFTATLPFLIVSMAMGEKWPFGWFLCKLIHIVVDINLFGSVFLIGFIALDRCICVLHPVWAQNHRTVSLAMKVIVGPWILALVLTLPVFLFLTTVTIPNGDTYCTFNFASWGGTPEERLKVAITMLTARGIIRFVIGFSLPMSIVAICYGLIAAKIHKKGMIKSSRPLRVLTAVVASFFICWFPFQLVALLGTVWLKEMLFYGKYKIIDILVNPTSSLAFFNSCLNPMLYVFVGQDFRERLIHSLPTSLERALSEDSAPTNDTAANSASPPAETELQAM
pEC50: −log10 of the molar value.
measured.parameter: pEC50

{"columns": ["compound", "value.measured"],
 "data": [
  ["COc1cc(F)c(-n2cc(C(=O)NCCCO)nc2NC(=O)c2ccc(OC(F)F)cc2)c(F)c1", 5.85],
  ["COc1cc(F)c(-n2cc(-c3cccc(Cl)c3)nc2NC(=O)c2ccc(OC(F)F)cc2)c(F)c1", 6.35],
  ["COc1ccc(-n2cc(C3CCCCC3)nc2NC(=O)c2ccc(OC(F)F)cc2)cc1", 6.18],
  ["COc1cc(F)c(-n2cc(-c3ccccc3F)nc2NC(=O)c2ccc(OC(F)F)cc2)c(F)c1 [WO2022076764, Example 25]", 7.33],
  ["COc1ccc(-n2cc(-c3nccs3)nc2NC(=O)c2ccc(OC(F)F)cc2)cc1", 6.96],
  ["CCOC(=O)c1cn(-c2c(F)cc(OC)cc2F)c(NC(=O)c2ccc(OC(F)F)cc2)n1", 6.21],
  ["COc1cc(F)c(-n2cc(C(=O)N3CCNC(=O)C3)nc2NC(=O)c2ccc(OC(F)F)cc2)c(F)c1", 5.47],
  ["COc1cc(F)c(-n2cc(C(=O)NCc3cnc(C)cn3)nc2NC(=O)c2ccc(OC(F)F)cc2)c(F)c1", 6.96]
]}

a: COc1cc(F)c(-n2cc(C(=O)NCC3CCC(O)CC3)nc2NC(=O)c2ccc(OC(F)F)cc2)c(F)c1 (centres undefined)
b: COc1cc(F)c(-n2cc(-c3ccc(C#N)cc3)nc2NC(=O)c2ccc(OC(F)F)cc2)c(F)c1
Dear colleague, could you let me know whether a or b has the lower recorded pEC50? Thanks. Return value: the label identifying the chosen record. a

a: COc1ccc(-c2cn(-c3c(F)cc(OC)cc3F)c(NC(=O)c3ccc(OC(F)F)cc3)n2)cc1
b: COc1cc(F)c(-n2cc(-c3ccc(F)cc3)nc2NC(=O)c2ccc(OC(F)F)cc2)c(F)c1
Dear colleague, could you let me know whether a or b has the lower recorded pEC50? Thanks. Return value: the label identifying the chosen record. b

---

- subject.of.test: UniProtKB P25090
measured.parameter: EC50 (nM)

Examples from the recorded data:
{"columns": ["compound", "EC50 [nM]"],
 "data": [
  ["COc1ccc(-n2cc(C(C)(C)C)nc2NC(=O)c2ccc(OC(F)F)cc2)cc1", 110],
  ["COc1ccc(-n2cc(-c3ccnc(Cl)c3)nc2NC(=O)c2ccc(OC(F)F)cc2)cc1", 19],
  ["CCS(=O)(=O)N1CCC(c2cn(-c3c(F)cc(OC)cc3F)c(NC(=O)c3ccc(OC(F)F)cc3)n2)CC1", 320],
  ["COc1cc(F)c(-n2cc(-c3ccnc(Cl)c3)nc2NC(=O)c2ccc(OC(F)F)cc2)c(F)c1", 120],
  ["COc1ccc(-n2cc(C(=O)NCCCO)nc2NC(=O)c2ccc(OC(F)F)cc2)cc1", 210]
]}

1: COc1cc(F)c(-n2cc(Cc3ccccn3)nc2NC(=O)c2ccc(OC(F)F)cc2)c(F)c1
2: COc1ccc(-n2cc(-c3ccccc3)nc2NC(=O)c2ccc(OC(F)F)cc2)cc1
Dear colleague, could you let me know whether 1 or 2 has the lower recorded EC50? Thanks. Return value: the label identifying the chosen record. 2
(2: 38 nM, 1: 870 nM)
